PROTOCOL TEXT: clinical
EXPERIMENTAL SETUP: human, in vivo, po, 1000 mg
REPORTED PROPERTY: Cmax (ng/mL)
API: value field is a number in ng/mL; no unit string.

// query Recorded Cmax for `Cn1c(=O)n([C@@H]2CCC(=O)NC2=O)c2cccc(C#CCOC3CCN(C[C@H]4CC[C@H](n5cc(NC(=O)c6cnn7ccc(N8C[C@H]9C[C@@H]8CO9)nc67)c(C(F)F)n5)CC4)CC3)c21` , please?
// result 27.8

###

PROTOCOL TEXT: clinical
EXPERIMENTAL SETUP: human, in vivo, po, 1600 mg
REPORTED PROPERTY: half-life

// query Recorded half-life for Cn1c(=O)n([C@@H]2CCC(=O)NC2=O)c2cccc(C#CCOC3CCN(C[C@H]4CC[C@H](n5cc(NC(=O)c6cnn7ccc(N8C[C@H]9C[C@@H]8CO9)nc67)c(C(F)F)n5)CC4)CC3)c21 [Compound A] , please?
// result 36.4 h
